test system: A549/ATCC NSCLC; test: NCI-60 one-dose screen, 48 h (100 = growth as untreated, 0 = no growth, -100 = all killed); conditions: 10 µM unless noted
The panel holds about 83,000 compounds, 20% with a hit somewhere; the sample as a whole holds those more often.
Quick reference for growth among some molecules
Only the number, expressed in %, is required.

These solved cases illustrate the format of a correct answer.
[
  {
    "Molecule": "Cc1nc(N)nc2c1CCC(Nc1ccccc1)S2 (stereo not given)",
    "Value unit": "%",
    "growth": 97.6
  },
  {
    "Molecule": "COc1cc2c(c(OC)c1O)C(=O)C(OC)C(c1ccc(O)c(O)c1)O2 (stereo not given)",
    "Value unit": "%",
    "growth": 17.7
  },
  {
    "Molecule": "C=C1C(=O)O[C@H]2[C@H]1CC/C(COC(=O)NCc1cn(C)c3ccccc13)=C\\CC[C@@]1(C)O[C@@H]21",
    "Value unit": "%",
    "growth": 21
  },
  {
    "Molecule": "Oc1ccc(-c2nc3ccccc3s2)cc1CN(Cc1ccccn1)Cc1ccccn1",
    "Value unit": "%",
    "growth": 2.38
  }
]

Now for a further molecule.
Req: For the record Cc1ccc(OC2=C(C#N)C(=N)N3C(=NN2)Sc2c(C)ccc(C)c23)cc1 , what value of growth is listed for A549/ATCC NSCLC?
Resp: 98.6
